protocol: Single ascending oral dose study in healthy volunteers: plasma pharmacokinetics
Type: in vivo, human
run_parameters: human, plasma, oral, 175 mg; read-out: Vz/F, Median
From the text: This example describes the first-in-human study of Compound I. Based on its mechanism of action, Compound I may offer a targeted therapy for patients with DCM caused by genetic or nongenetic mechanisms. […] The concentrations of Compound I in human plasma and urine were quantitated by high performance liquid chromatography with tandem mass spectrometric detection (LC MS/MS) (Biological sample analysis study report Alturas AD17-726). […]
measured_property: Vd/F

Ask: Entry Cn1cc(S(=O)(=O)[C@@](C)(F)C2CCN(C(=O)Nc3ccon3)CC2)c(C(F)F)n1 has what Vd/F?
Reply: 101 L
